Entry source: ChEMBL document CHEMBL5244221

molecular target: Cruzipain (Trypanosoma cruzi)
Sequence (P25779 whole entry): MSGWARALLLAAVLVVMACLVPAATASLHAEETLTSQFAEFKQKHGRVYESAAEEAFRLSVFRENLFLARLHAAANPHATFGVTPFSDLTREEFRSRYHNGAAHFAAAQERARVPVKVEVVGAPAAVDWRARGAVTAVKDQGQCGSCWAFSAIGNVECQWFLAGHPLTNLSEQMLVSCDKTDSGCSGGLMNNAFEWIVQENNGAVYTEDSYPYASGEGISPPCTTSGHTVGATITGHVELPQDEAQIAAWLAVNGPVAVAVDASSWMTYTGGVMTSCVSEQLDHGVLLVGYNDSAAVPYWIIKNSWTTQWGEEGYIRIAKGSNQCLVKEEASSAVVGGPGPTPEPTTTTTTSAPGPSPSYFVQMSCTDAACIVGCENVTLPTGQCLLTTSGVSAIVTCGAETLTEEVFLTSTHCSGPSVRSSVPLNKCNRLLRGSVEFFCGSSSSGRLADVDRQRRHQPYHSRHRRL
quantityName: Ki

[in] Under Cruzipain (Trypanosoma cruzi): Ki value of O=C(COc1ccc2ccccc2c1Br)NCCc1nc2ccccc2[nH]1 ?
[out] 0.08 µM

###

tested on: Trypanosoma cruzi; assay: Antitrypanosomal activity against Trypanosoma cruzi assessed as reduction in parasite growth; format: functional, organism-based
# IC50 values compiled below

OCCCNc1ccnc2cc(Cl)ccc12 | 6.5 µM
Clc1ccc2c(NCCN3CCOCC3)ccnc2c1 | > 250 µM
NCCCNc1ccnc2cc(Cl)ccc12 | > 250 µM
O=C(CNc1ccnc2cc(Cl)ccc12)N1CCOCC1 | > 250 µM
O=C(COCc1ccccc1Br)NCCc1nc2ccccc2[nH]1 | 34.6 µM

[in] IC50 for OCCNc1ccnc2cc(Cl)ccc12 ?
[out] > 250 µM

[in] For the compound shown here, OCCN1CCN(c2ccnc3cc(Cl)ccc23)CC1 , give the reported IC50.
[out] > 250 µM
